Provenance of the data: PubChem BioAssay (NCI)

Tested on: MALME-3M melanoma
Experiment: NCI-60 one-dose screen, 48 h (100 = growth as untreated, 0 = no growth, -100 = all killed)
Conditions: 10 µM
This is part of a sample that, as a whole, favours compounds with a hit. Of some 83,000 tested, about 20% had one in any assay. Calls of active or inactive are those of the source. The calls were made as follows: active = growth percent below 10; inactive = the rest.
Below, each of the compounds is paired with its reported growth value.

Here is how some compounds turned out for growth.
{"Compound": "Cc1ccc(Sc2ccccc2N)cc1", "Assayed target": "MALME-3M melanoma", "growth": "116% (inactive)"}
{"Compound": "C#CCN(Cc1ccc2nc(N)[nH]c(=O)c2c1)c1ccc(C(=O)NC(CCC(=O)O)C(=O)O)cc1 (centres undefined)", "Assayed target": "MALME-3M melanoma", "growth": "86.8% (inactive)"}
{"Compound": "Cc1cc(N(CCOS(C)(=O)=O)CCOS(C)(=O)=O)ccc1C=Nc1ccc(-c2nc(Cc3ccccc3)sc2C)cc1", "Assayed target": "MALME-3M melanoma", "growth": "58% (inactive)"}

Now examine the next entry.
Sample C=C1C(=O)OC2CC1C(OC(C)=O)C/C(C)=C/CC/C(C)=C\CCC2(C)O (centres undefined) — what was its growth? 18.6% (inactive)

---

Tested on: RPMI-8226 leukemia
Assay: NCI-60 one-dose screen, 48 h (100 = growth as untreated, 0 = no growth, -100 = all killed)
Conditions: 10 µM
Compounds without any hit were thinned out: in the full panel of roughly 83,000, 20% have a hit.
Recorded metric: growth (%)
Form entry: value (%) — number only.

Query for RPMI-8226 leukemia: what growth does the record show for C=C1C(=O)OC2CC1C(OC(C)=O)C/C(C)=C/CC/C(C)=C\CCC2(C)O (stereo unspecified) ? -22.3

Moving on to the next compound: Cc1cc(N(CCOS(C)(=O)=O)CCOS(C)(=O)=O)ccc1C=Nc1ccc(-c2nc(Cc3ccccc3)sc2C)cc1 62.3

Moving on to the next compound: O=[N+]([O-])c1cc[n+]([O-])cc1 102

Moving on to the next compound: C#CCN(Cc1ccc2nc(N)[nH]c(=O)c2c1)c1ccc(C(=O)NC(CCC(=O)O)C(=O)O)cc1 (stereo unspecified) 51.3

Moving on to the next compound: Cc1ccc(Sc2ccccc2N)cc1 89.8

Moving on to the next compound: COc1ccc(C(=O)C(CN(C)C)CN(C)C)cc1 64.3

---

Tested on: SNB-75 CNS
Experiment: NCI-60 one-dose screen, 48 h (100 = growth as untreated, 0 = no growth, -100 = all killed)
Settings: 10 µM
About 83,000 compounds went through this panel and 20% of them were active in at least one assay; those are over-represented in the sample as a whole. Calls of active or inactive are those of the source. Rule for the calls: active = growth percent below 10; inactive = the rest.
Recorded metric: growth

Here is how some compounds turned out for growth.
{"Compound": "Cc1ccc(Sc2ccccc2N)cc1", "growth": "122% (inactive)"}
{"Compound": "C#CCN(Cc1ccc2nc(N)[nH]c(=O)c2c1)c1ccc(C(=O)NC(CCC(=O)O)C(=O)O)cc1 (centres undefined)", "growth": "86.5% (inactive)"}
{"Compound": "COc1ccc(C(=O)C(CN(C)C)CN(C)C)cc1", "growth": "76.4% (inactive)"}

Now examine the next entry.
Sample Cc1cc(N(CCOS(C)(=O)=O)CCOS(C)(=O)=O)ccc1C=Nc1ccc(-c2nc(Cc3ccccc3)sc2C)cc1 — what was its growth? -1.26% (active)

---

Tested on: MOLT-4 leukemia
Test: NCI-60 one-dose screen, 48 h
Conditions: 10 µM
About 83,000 compounds went through this panel and 20% of them were active in at least one assay; those are over-represented in the sample as a whole. Active and inactive are the calls of the source. How the source made its calls: active means growth percent below 10; inactive means the rest.
Respond with a class label; see active, inactive

Solved cases (3 shown):
{"Molecule": "C#CCN(Cc1ccc2nc(N)[nH]c(=O)c2c1)c1ccc(C(=O)NC(CCC(=O)O)C(=O)O)cc1 (centres undefined)", "Discrete label": "inactive"}
{"Molecule": "Cc1cc(N(CCOS(C)(=O)=O)CCOS(C)(=O)=O)ccc1C=Nc1ccc(-c2nc(Cc3ccccc3)sc2C)cc1", "Discrete label": "inactive"}
{"Molecule": "C=C1C(=O)OC2CC1C(OC(C)=O)C/C(C)=C/CC/C(C)=C\\CCC2(C)O (centres undefined)", "Discrete label": "active"}

Please share the test call associated with COc1ccc(C(=O)C(CN(C)C)CN(C)C)cc1 . active

---

System: A549/ATCC NSCLC
Assay: NCI-60 one-dose screen, 48 h (100 = growth as untreated, 0 = no growth, -100 = all killed)
Details: 10 µM
This is part of a sample that, as a whole, favours compounds with a hit. Of some 83,000 tested, about 20% had one in any assay. Activity calls are given as the source filed them. The calls were made as follows: active = growth percent below 10; inactive = the rest.
Recorded metric: growth

Sample Cc1cc(N(CCOS(C)(=O)=O)CCOS(C)(=O)=O)ccc1C=Nc1ccc(-c2nc(Cc3ccccc3)sc2C)cc1 — what was its growth? 34.8% (inactive)

Moving on to the next compound: O=[N+]([O-])c1cc[n+]([O-])cc1 101% (inactive)

Moving on to the next compound: COc1ccc(C(=O)C(CN(C)C)CN(C)C)cc1 118% (inactive)

Moving on to the next compound: Cc1ccc(Sc2ccccc2N)cc1 96% (inactive)

---

Tested on: UACC-62 melanoma
Assay: NCI-60 one-dose screen, 48 h (100 = growth as untreated, 0 = no growth, -100 = all killed)
Conditions: 10 µM
Experimental: Growth inhibition of the UACC-62 human tumor cell line is measured as a screen for anti-cancer activity. Cells are grown in 96 well plates and exposed to the test compound for 48 hours. Compounds are tested at a single concentration, which is 10^-5 M for most compounds. The reported endpoint is percent growth (GI% or GIPRCNT), where numbers from 0 - 100% represent growth inhibition, and numbers from -100% - 0 represent cell death. For example, a value of 40 represents 60% growth inhibition. […]
This is part of a sample that, as a whole, favours compounds with a hit. Of some 83,000 tested, about 20% had one in any assay.
Below, each of the compounds is paired with its reported growth value.
Form entry: value (%) — number only.

{"Compound": "O=[N+]([O-])c1cc[n+]([O-])cc1", "Assayed target": "UACC-62 melanoma", "Obs value": 91.1}

Now examine the next entry.
Sample C#CCN(Cc1ccc2nc(N)[nH]c(=O)c2c1)c1ccc(C(=O)NC(CCC(=O)O)C(=O)O)cc1 (stereo not given) — what was its growth? 81.6

---

System: UACC-257 melanoma
Assay: NCI-60 one-dose screen, 48 h (100 = growth as untreated, 0 = no growth, -100 = all killed)
Settings: 10 µM
This is part of a sample that, as a whole, favours compounds with a hit. Of some 83,000 tested, about 20% had one in any assay.
Below, each of the compounds is paired with its reported growth value.
Form entry: value (%) — number only.

Here is how some compounds turned out for growth.
{"Compound": "O=[N+]([O-])c1cc[n+]([O-])cc1", "Unit symbol": "%", "growth": 76.5}
{"Compound": "C=C1C(=O)OC2CC1C(OC(C)=O)C/C(C)=C/CC/C(C)=C\\CCC2(C)O (stereo not given)", "Unit symbol": "%", "growth": 58.2}
{"Compound": "Cc1cc(N(CCOS(C)(=O)=O)CCOS(C)(=O)=O)ccc1C=Nc1ccc(-c2nc(Cc3ccccc3)sc2C)cc1", "Unit symbol": "%", "growth": 6.01}
{"Compound": "C#CCN(Cc1ccc2nc(N)[nH]c(=O)c2c1)c1ccc(C(=O)NC(CCC(=O)O)C(=O)O)cc1 (stereo not given)", "Unit symbol": "%", "growth": 92.1}

Now examine the next entry.
Sample Cc1ccc(Sc2ccccc2N)cc1 — what was its growth? 98.5

---

Test system: COLO 205 colon
Assay: NCI-60 one-dose screen, 48 h
Conditions: 10 µM
About 83,000 compounds went through this panel and 20% of them were active in at least one assay; those are over-represented in the sample as a whole. The source made the active and inactive calls. How the source made its calls: active means growth percent below 10; inactive means the rest.
Respond with a class label; see active, inactive

Solved cases (3 shown):
{"Compound": "O=[N+]([O-])c1cc[n+]([O-])cc1", "Discrete label": "inactive"}
{"Compound": "Cc1ccc(Sc2ccccc2N)cc1", "Discrete label": "inactive"}
{"Compound": "C=C1C(=O)OC2CC1C(OC(C)=O)C/C(C)=C/CC/C(C)=C\\CCC2(C)O (stereo not given)", "Discrete label": "active"}

Please share the test call associated with COc1ccc(C(=O)C(CN(C)C)CN(C)C)cc1 . active

Moving on to the next compound: Cc1cc(N(CCOS(C)(=O)=O)CCOS(C)(=O)=O)ccc1C=Nc1ccc(-c2nc(Cc3ccccc3)sc2C)cc1 active

---

System: LOX IMVI melanoma
Test: NCI-60 one-dose screen, 48 h
Conditions: 10 µM
About 83,000 compounds went through this panel and 20% of them were active in at least one assay; those are over-represented in the sample as a whole. The source made the active and inactive calls. Rule for the calls: active = growth percent below 10; inactive = the rest.
Respond with a class label; see active, inactive

{"Compound": "CN(C)CCOC1(Cc2ccc(Cl)cc2Cl)CCC(C(C)(C)C)CC1 (stereo not given)", "Discrete label": "active"}
{"Compound": "O=[N+]([O-])c1cc[n+]([O-])cc1", "Discrete label": "inactive"}
{"Compound": "C=C1C(=O)OC2CC1C(OC(C)=O)C/C(C)=C/CC/C(C)=C\\CCC2(C)O (stereo not given)", "Discrete label": "active"}

Please share the test call associated with C#CCN(Cc1ccc2nc(N)[nH]c(=O)c2c1)c1ccc(C(=O)NC(CCC(=O)O)C(=O)O)cc1 (stereo not given) . inactive

Moving on to the next compound: Cc1ccc(Sc2ccccc2N)cc1 inactive
